Assay: Spectrophotometric titration with HCl
Assay type: physicochemical
Conditions: read-out: pKa of the bis-amino groups
Description: Aqueous solutions of polymers were titrated by with 1.0 N HCl delivered to an Aminco-SDP-125 spectrofluorimeter, equipped with a flow through cell, from a titration vessel, via a peristaltic pump. Spectrophotometric titrations were carried out for a mixture of poly(L-lysine iso-phthalamide) at a concentration of 0.5 g/l and free bis-amino Cy3 at a fluorophore concentration of 0.26 mM (0.1 g/l), which yields the maximum emission intensity for this polymer/fluorophore combination.
READOUT TYPE: pKa
No unit in the answer, only the number.

Quick note, pKa for CCN1/C(=C/C=C/C2=[N+](CC)c3ccc(CN)cc3C2(C)C)C(C)(C)c2cc(CN)ccc21 [bis-amino Cy3, reference compound] landed at 9.5
